Assay: Toxicity (LD 10, LD 50) in the mouse
Format: in vivo
Settings: in vivo, iv
Non-standard residues stand in square brackets, D forms with d. Residues, ends and D or L forms follow the SMILES beside them. pGlu = O=C1CC[C@@H](C(=O)O)N1; βAla = NCCC(=O)O
PROPERTY: LD50

> print(dat)
                                   compound        result
1  NC(=O)CCNC(=O)[C@@H]1CCCN1C(=O)[C@H](Cc1c[nH]cn1)NC(=O)[C@@H]1CCC(=O)N1 [compound of formula I] ([pGlu]HP[βAla]-NH2)  > 4000 mg/kg
